B1: scFv; the commonest letter at each place (parent)
chain 1: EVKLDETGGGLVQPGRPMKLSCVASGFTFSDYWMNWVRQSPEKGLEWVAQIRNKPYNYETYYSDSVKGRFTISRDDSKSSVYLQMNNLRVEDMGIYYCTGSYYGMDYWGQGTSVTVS
chain 2: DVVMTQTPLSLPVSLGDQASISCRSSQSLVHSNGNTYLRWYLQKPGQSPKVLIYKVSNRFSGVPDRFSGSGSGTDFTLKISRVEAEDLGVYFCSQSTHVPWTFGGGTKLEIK

- Variants of: B1
- testDescription: yeast surface expression (ratio to wild type); higher = more expressed
- details: format: scFv 4-4-20, heavy + light
testReadout: yeast surface expression

Would you please look over these solved cases?
mutationList | experimentalResult
chain 1 M34I W36Q | 0.283
chain 1 G100C W108G | 0.401
chain 1 S101R W108V | 0.24
chain 1 T28A W33R M34S | 1.12

Need yeast surface expression, item chain 1 G100I Y103C M105Y
0.694

Need yeast surface expression, item chain 1 D106T G109R
0.26
